# System: SNB-75 CNS
# test: NCI-60 one-dose screen, 48 h (100 = growth as untreated, 0 = no growth, -100 = all killed)
# conditionsUsed: 10 µM unless noted
The panel holds about 83,000 compounds, 20% with a hit somewhere; the sample as a whole holds those more often.
measurementKind: growth (%)
Express your answer in %, writing the number without its unit.

compound	measurementKind	quantityUnit	reportedResult
OCc1c(-c2ccccc2)nc2sccn12	growth	%	122
O=C(O)Cc1ccc2c(c1)Cc1cccnc1O2	growth	%	87.9
COc1ccc(NC(=O)CSc2nc3ccccc3c(=O)n2-c2ccccc2C(F)(F)F)c(OC)c1OC	growth	%	83.9
COc1cc(C2C3=C(COC3=O)Nc3c2ccc2c3CCCC2)cc2c1OCO2 (stereo not given)	growth	%	34.3
Nc1nc(N)c2nc(CNc3ccc(C(=O)CC(CCC(=O)O)C(=O)O)cc3)cnc2n1 (stereo not given)	growth	%	71.7
COC(=O)c1ccc2nc(-c3cc4ccccc4n3C)n(CCCCOc3cc4c(cc3OC)C(=O)N3CCC[C@H]3C=N4)c2c1	growth	%	-79.5

Measured growth of COc1cc(Br)c(OC)cc1Br : 90.4

Reported growth ( Cc1oc2nc[nH]c(=O)c2c1C(=O)/C=C/c1ccc(Cl)cc1Cl ) = 44.6

Record CCCCCCCCCCCCCCCCCCOc1cccc(CCOP(=O)(O)OCC[N+](C)(C)C)c1 . Reported growth: 83.1

Briefly, growth measured for NC(N)=NC(N)=Nc1ccccc1-c1ccccc1 : 97.4
